Target: human CCK2R (Homo sapiens, UniProt P32239)
Construct: originally provided by Dr. Luigi Aloj
Sequence (P32239 whole entry): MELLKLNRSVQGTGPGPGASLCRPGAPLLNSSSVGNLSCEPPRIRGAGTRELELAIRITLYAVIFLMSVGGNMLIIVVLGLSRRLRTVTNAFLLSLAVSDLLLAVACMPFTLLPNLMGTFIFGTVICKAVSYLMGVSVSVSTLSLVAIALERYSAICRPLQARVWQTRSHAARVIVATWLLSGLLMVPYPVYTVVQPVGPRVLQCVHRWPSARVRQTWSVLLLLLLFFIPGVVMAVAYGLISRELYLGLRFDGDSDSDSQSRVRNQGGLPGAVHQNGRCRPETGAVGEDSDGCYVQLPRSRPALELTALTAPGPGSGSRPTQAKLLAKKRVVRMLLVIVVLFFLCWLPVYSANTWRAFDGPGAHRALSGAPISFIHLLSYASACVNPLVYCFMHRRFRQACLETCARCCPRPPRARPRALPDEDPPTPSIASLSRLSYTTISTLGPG
Experiment: Calcium mobilization assay (fluo-4 AM) on A431-CCK2R cells
Details: normalized to 10^−6 M pentagastrin, mean ± SEM of at least three independent experiments in triplicates
Where a SMILES comes first, the peptide text is derived from it. [ ]: non-standard residue; d: D form. The star is where a group is joined. DOTA = O=C(O)CN1CCN(CC(=O)O)CCN(CC(=O)*)CCN(CC(=O)O)CC1; 1Nal = N[C@@H](Cc1cccc2ccccc12)C(=O)O; NMeNle = CCCC[C@H](NC)C(=O)O
Listed below: pEC50 values for each entry.
// pEC50: -log10(molar conc.)

Guide cases for pEC50, answers given:
Compound	Target Desc	pEC50
CCCC[C@@H](C(=O)N[C@@H](CC(=O)O)C(=O)N[C@@H](Cc1cccc2ccccc12)C(=O)NC)N(C)C(=O)[C@H](Cc1c[nH]c2ccccc12)NC(=O)CNC(=O)[C@H](Cc1ccc(O)cc1)NC(=O)[C@H](C)NC(=O)[C@@H](CCC(=O)O)NC(=O)CN1CCN(CC(=O)O)CCN(CC(=O)O)CCN(CC(=O)O)CC1 [DOTA-MGS5[NHCH3]]	human CCK2R (Homo sapiens, UniProt P32239)	7.39
CCCC[C@@H](C(=O)N[C@@H](CC(=O)O)C(=O)N[C@@H](Cc1ccccc1)C(N)=O)N(C)C(=O)[C@H](Cc1c[nH]c2ccccc12)NC(=O)CNC(=O)[C@H](Cc1ccc(O)cc1)NC(=O)[C@H](C)NC(=O)[C@@H](CCC(=O)O)NC(=O)CN1CCN(CC(=O)O)CCN(CC(=O)O)CCN(CC(=O)O)CC1 [DOTA-[Phe^8]MGS5] ({DOTA}-[dE]AYGW[NMeNle]DF-NH2)	human CCK2R (Homo sapiens, UniProt P32239)	8.20
CCCC[C@@H](C(=O)N[C@@H](CC(=O)O)C(=O)N[C@@H](Cc1cccc2ccccc12)C(N)=O)N(C)C(=O)[C@H](Cc1c[nH]c2ccccc12)NC(=O)CNC(=O)[C@H](Cc1ccc(O)cc1)NC(=O)[C@H](C)NC(=O)[C@@H](CCC(=O)O)NC(=O)CN1CCN(CC(=O)O)CCN(CC(=O)O)CCN(CC(=O)O)CC1 [DOTA-MGS5, reference compound]	human CCK2R (Homo sapiens, UniProt P32239)	8.10
CCCC[C@@H](C(=O)N[C@@H](CC(=O)O)C(=O)N[C@@H](Cc1ccc2ccccc2c1)C(N)=O)N(C)C(=O)[C@H](Cc1c[nH]c2ccccc12)NC(=O)CNC(=O)[C@H](Cc1ccc(O)cc1)NC(=O)[C@H](C)NC(=O)[C@@H](CCC(=O)O)NC(=O)CN1CCN(CC(=O)O)CCN(CC(=O)O)CCN(CC(=O)O)CC1 [DOTA-[2Nal^8]MGS5]	human CCK2R (Homo sapiens, UniProt P32239)	7.89
CCCC[C@@H](C(=O)N[C@@H](CC(=O)O)C(=O)N(C)[C@@H](Cc1cccc2ccccc12)C(N)=O)N(C)C(=O)[C@H](Cc1c[nH]c2ccccc12)NC(=O)CNC(=O)[C@H](Cc1ccc(O)cc1)NC(=O)[C@H](C)NC(=O)[C@@H](CCC(=O)O)NC(=O)CN1CCN(CC(=O)O)CCN(CC(=O)O)CCN(CC(=O)O)CC1 [DOTA-[(N-Me)1Nal^8]MGS5]	human CCK2R (Homo sapiens, UniProt P32239)	7.20

Attention now turns to another entry.
Recorded pEC50 of CCCC[C@@H](C(=O)N[C@@H](CC(=O)O)C(=O)N[C@@H](Cc1cccc2ccccc12)C(N)=O)N(C)C(=O)[C@H](Cc1c[nH]c2ccccc12)NC(=O)CNC(=O)[C@H](Cc1ccc(O)cc1)NC(=O)[C@H](C)NC(=O)[C@@H](CCCCN)NC(=O)CN1CCN(CC(=O)O)CCN(CC(=O)O)CCN(CC(=O)O)CC1 [DOTA-[DLys^1]MGS5] ({DOTA}-[dK]AYGW[NMeNle]D[1Nal]-NH2) , please. 7.36
